# Test system: human epithelial HeLa cells
# protocolText: HeLa cytotoxicity assay (CellTiter-Glo)
# Format: cell-based
# assaySetup: pCC50
# Protocol: Compounds of the present invention were tested via high-throughput cellular assays utilizing detection of kynurenine via mass spectrometry and cytotoxicity as end-points. […] Cellular toxicity due to the effect of compound treatment was measured using CellTiter-Glo® reagent (CTG) (Promega Corporation, Madison, Wis.), which is based on luminescent detection of ATP, an indicator of metabolically active cells. […]
The reader will find reported HELA_IDO1_TOX_PXC50 values listed item by item below.

molecule	HELA_IDO1_TOX_PXC50
CC(C)CN(c1ccc(-c2ccccc2C(=O)NCCCCCN)cc1Nc1nc(C(F)(F)F)ns1)C1CCCCC1	<5

Reported HELA_IDO1_TOX_PXC50 for human epithelial HeLa cells, given CC(C)CN(CC(C)C)c1ccc(C(C)CC(=O)O)cc1Nc1nc(-c2ccccc2)ns1 (stereo not shown) ?
<4.3

Give HELA_IDO1_TOX_PXC50 (human epithelial HeLa cells) of the following molecule: `CC(C)CN(CC(C)C)c1ccc(-c2ccccc2C(=O)O)cc1Nc1nc(C2CC2)ns1`
<5

Please tell me: HELA_IDO1_TOX_PXC50 of CC(C)CN(CC(C)C)c1ccc(C2CC2C(=O)O)cc1Nc1nc(Cl)ns1 (stereo not shown) , system human epithelial HeLa cells?
<5

For human epithelial HeLa cells, provide HELA_IDO1_TOX_PXC50 of CC(C)CN(c1ccc(C(C)CC(=O)O)cc1NC1CCNC1)C1CCCCC1 (stereo not shown) please.
5.1

Notebook entry, human epithelial HeLa cells assay: HELA_IDO1_TOX_PXC50 of CC(C)CN(CC(C)C)c1ccc(C(C)CC(=O)O)cc1Nc1nnc(N)s1 (stereo not shown) = ?
<5

---

# systemUnderTest: indoleamine 2, 3-dioxygenase (IDO1) (Homo sapiens, UniProt P14902)
# Sequence (P14902 whole entry): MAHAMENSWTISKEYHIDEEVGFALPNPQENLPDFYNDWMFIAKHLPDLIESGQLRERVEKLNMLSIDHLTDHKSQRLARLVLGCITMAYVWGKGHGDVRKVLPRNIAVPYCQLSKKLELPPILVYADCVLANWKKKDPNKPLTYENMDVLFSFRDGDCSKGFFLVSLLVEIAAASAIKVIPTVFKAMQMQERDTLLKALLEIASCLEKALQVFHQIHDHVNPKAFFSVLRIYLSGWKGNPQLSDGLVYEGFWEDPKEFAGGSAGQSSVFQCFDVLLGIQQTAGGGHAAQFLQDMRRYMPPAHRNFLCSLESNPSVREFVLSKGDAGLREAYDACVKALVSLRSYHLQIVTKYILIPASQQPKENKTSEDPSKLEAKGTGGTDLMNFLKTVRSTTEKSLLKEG
# protocolText: IDO1 PBMC RapidFire MS assay (kynurenine detection by mass spectrometry)
# Type: cell-based
# Set-up: to induce the expression of indoleamine 2, 3-dioxygenase (IDO1); host or cells: human PBMC stimulated with IFN-gamma and LPS
# assaySetup: human PBMC stimulated with IFN-γ and LPS, 2 days, pIC50, read-out: PBMC PXC50 (converted)
readoutName: log10 of IC50 (log10 of the value in µM)
Heads up, the numbers here are log10 of IC50 in µM units.

compound	log10 of IC50
CC(C)CN(c1ccc(-c2ccccc2C(=O)O)cc1Nc1nc(C(F)(F)F)ns1)[C@H]1CC[C@H](O)CC1 [Example 112]	-2.10
CC(C)CN(c1ccc([C@H](C)CC(=O)O)cc1Nc1cnc(C(N)=O)cn1)C1CCOCC1 [example 264]	-1.10
CC(C)CN(c1ccc(C(C)CC(=O)O)cc1Nc1nc(Cl)ns1)C1CCOCC1 (centres unmarked) [Example 21]	-2.60
CC(C)CN(c1ccc([C@H](C)CC(=O)O)cc1NC1CCCC1)C1CCCCC1 [example 179]	-0.90
CC(C)CN(c1ccc([C@H](C)CC(=O)O)cc1Nc1nc(C2CC2)cs1)C1CCOCC1 [example 211]	-1.70
CC(C)CN(c1ccc(-c2cccnc2C(=O)O)cc1Nc1nc(C(F)(F)F)ns1)C1CCCCC1 [Example 88]	-2.40

Hello, I am looking for reported log10 of IC50 with indoleamine 2, 3-dioxygenase (IDO1) (Homo sapiens, UniProt P14902) for CC(C)CN(c1ccc([C@H](C)CC(=O)O)cc1Nc1n[nH]c(C(N)=O)n1)[C@H]1CC[C@H](O)CC1 (racemic) [example 225] . Could you help?
0.90

Entry CC(C)CN(c1ccc([C@H](C)CC(=O)O)cc1Nc1ccc(Cl)cn1)C1CCCCC1 [Example 75] , system indoleamine 2, 3-dioxygenase (IDO1) (Homo sapiens, UniProt P14902): what log10 of IC50 was measured?
-2.80
